Values compiled from ChEMBL document CHEMBL2021879.

Catalogue of compounds with associated pIC50
molecular target: Dipeptidyl peptidase 8 (Homo sapiens)
Sequence (Q6V1X1 whole entry): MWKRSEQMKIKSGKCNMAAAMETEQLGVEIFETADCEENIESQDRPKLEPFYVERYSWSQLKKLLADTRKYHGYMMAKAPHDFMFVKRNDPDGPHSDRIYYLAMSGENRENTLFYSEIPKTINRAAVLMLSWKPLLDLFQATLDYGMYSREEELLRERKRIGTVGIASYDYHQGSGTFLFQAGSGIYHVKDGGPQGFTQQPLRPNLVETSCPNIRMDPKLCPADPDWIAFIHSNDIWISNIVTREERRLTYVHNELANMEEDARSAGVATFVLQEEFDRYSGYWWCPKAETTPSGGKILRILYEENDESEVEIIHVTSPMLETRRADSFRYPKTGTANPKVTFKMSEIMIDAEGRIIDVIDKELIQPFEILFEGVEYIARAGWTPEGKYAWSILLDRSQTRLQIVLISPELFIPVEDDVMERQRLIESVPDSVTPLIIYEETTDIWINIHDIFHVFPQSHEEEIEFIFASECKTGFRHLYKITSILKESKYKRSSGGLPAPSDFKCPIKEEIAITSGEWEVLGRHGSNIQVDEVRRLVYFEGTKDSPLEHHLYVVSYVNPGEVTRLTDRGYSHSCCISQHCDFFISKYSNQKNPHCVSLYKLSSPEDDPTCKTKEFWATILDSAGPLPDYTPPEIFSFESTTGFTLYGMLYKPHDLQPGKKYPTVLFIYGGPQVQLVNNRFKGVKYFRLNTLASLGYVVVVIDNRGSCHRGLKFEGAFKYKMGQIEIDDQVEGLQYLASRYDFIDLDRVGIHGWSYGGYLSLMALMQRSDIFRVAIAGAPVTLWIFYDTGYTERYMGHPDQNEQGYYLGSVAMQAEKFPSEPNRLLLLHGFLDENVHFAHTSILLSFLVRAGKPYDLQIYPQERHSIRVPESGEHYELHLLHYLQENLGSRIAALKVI
pIC50: −log10 of the molar value.

[
  {
    "smiles": "Cc1cc2c(=O)n(Cc3ccccc3C#N)c(N3CCC[C@@H](N)C3)nc2[nH]1",
    "measurement": "< 4.60"
  },
  {
    "smiles": "N#Cc1ccccc1Cn1c(N2CCC[C@@H](N)C2)nc2[nH]c(-c3cccnc3)cc2c1=O",
    "measurement": "< 5.00"
  }
]

Here is another compound to look at.
Asked: Data request, read-out pIC50, for N#Cc1ccccc1Cn1c(N2CCC[C@@H](N)C2)nc2[nH]c(Br)cc2c1=O
Given back: < 4.60
